Quick reference: aptazyme ON/OFF ratio of the listed items.
B1: Pistol ribozyme (parent)
chain: GGGUCGUUGUUCCAUAAUCGCGUGGAUAUGGCACGCAAGUUUCUACCGGGCACCGUAAAUGUCCGACUGGAGCCGUUCGGGCGGCUAUAAACAGACCUCAGGCCCGAAGCGUGGCGGCACCUGCCGCCGGUGGUAAAAAAGAUCGGAAGAGCACACGUCU

# Variants of: B1
# METHOD_SUMMARY: aptazyme ON/OFF ratio, guanine; higher = stronger switching; co-transcriptional cleavage with and without guanine

>  <MUTATION_LABEL>
U7G U8C G9U U10A U11G C12G C13G

>  <aptazyme ON/OFF ratio>
1.13

$$$$
>  <MUTATION_LABEL>
U8C G9C U10C C12G C13G

>  <aptazyme ON/OFF ratio>
1.12

$$$$
>  <MUTATION_LABEL>
U7G U10A U11C C12G C13U

>  <aptazyme ON/OFF ratio>
1.11

$$$$
>  <MUTATION_LABEL>
U8A U10C U11A C12A C13U

>  <aptazyme ON/OFF ratio>
1.3

$$$$
>  <MUTATION_LABEL>
U7G U8G G9U U10A C13U

>  <aptazyme ON/OFF ratio>
1.31

$$$$
>  <MUTATION_LABEL>
U7A U8G G9U U10G U11C C12A C13U

>  <aptazyme ON/OFF ratio>
1.16

$$$$
>  <MUTATION_LABEL>
U8C U10G U11G C13G

>  <aptazyme ON/OFF ratio>
1.2

$$$$
>  <MUTATION_LABEL>
U7A U8G G9A U10G U11A C12U C13U

>  <aptazyme ON/OFF ratio>
1.27

$$$$
>  <MUTATION_LABEL>
U7G U8G G9C U10C U11C C12G

>  <aptazyme ON/OFF ratio>
1.05

$$$$
>  <MUTATION_LABEL>
U7G U8A G9U U10G U11C C12G C13U

>  <aptazyme ON/OFF ratio>
1.21

$$$$
>  <MUTATION_LABEL>
G9C U10A C12G C13G

>  <aptazyme ON/OFF ratio>
1.18

$$$$
>  <MUTATION_LABEL>
U7A U8A G9C U11A C13A

>  <aptazyme ON/OFF ratio>
1.21

$$$$
>  <MUTATION_LABEL>
U7C G9A U10C U11C C12A C13U

>  <aptazyme ON/OFF ratio>
1.16

$$$$
>  <MUTATION_LABEL>
U7G U8A U10A U11C C13G

>  <aptazyme ON/OFF ratio>
1.06

$$$$
>  <MUTATION_LABEL>
U8G G9U U10C U11G C12G C13U

>  <aptazyme ON/OFF ratio>
1.08

$$$$
>  <MUTATION_LABEL>
U7C U8G G9U U11G C12A C13G

>  <aptazyme ON/OFF ratio>
1.24

$$$$
>  <MUTATION_LABEL>
U7A U8C G9C U10C C12G C13A

>  <aptazyme ON/OFF ratio>
1.04

$$$$
>  <MUTATION_LABEL>
U7C U8G U10G U11G

>  <aptazyme ON/OFF ratio>
1.63

$$$$
>  <MUTATION_LABEL>
U7G G9A U10G C12U C13A

>  <aptazyme ON/OFF ratio>
1.11

$$$$
>  <MUTATION_LABEL>
G9A U10A U11C C12G C13G

>  <aptazyme ON/OFF ratio>
1.27

$$$$
>  <MUTATION_LABEL>
U7A U8C G9A C12G C13A

>  <aptazyme ON/OFF ratio>
1.13

$$$$
>  <MUTATION_LABEL>
U8G G9A U10A U11G C12A C13U

>  <aptazyme ON/OFF ratio>
1.27

$$$$
